protocol.description: Real time FT-IR curing performance at 405 nm in neat TMPTA
experimental.context: LED @405 nm (110 mW/cm^2), 20 μm thickness, laminated
measured.property: Acrylate Final conversion (%)

1. CCc1cc(CC)c2sc3ccc(-[s+]4c5ccccc5c(=O)c5cc(CC)cc(CC)c54)cc3c(=O)c2c1 (stereo not drawn): 65
2. CCc1cc(CC)c2sc3ccc([S+](c4ccc(C)cc4)c4ccc(C(=O)c5ccccc5)cc4)cc3c(=O)c2c1 (stereo not drawn): 64
3. Cc1ccc([S+](c2ccc(C(=O)c3ccccc3)cc2)c2ccc3sc4ccc(C(C)C)cc4c(=O)c3c2)cc1 (stereo not drawn): 53
4. CC(C)c1ccc2sc3ccc(-[s+]4c5ccccc5c(=O)c5cc(C(C)C)ccc54)cc3c(=O)c2c1 (stereo not drawn): 38
5. CCCOc1ccc(Cl)c2c(=O)c3cc([S+](c4ccc(C)cc4)c4ccc(C(=O)c5ccccc5)cc4)ccc3sc12 (stereo not drawn): 45
6. CCCOc1ccc(Cl)c2c(=O)c3cc(-[s+]4c5ccccc5c(=O)c5c(Cl)ccc(OCCC)c54)ccc3sc12 (stereo not drawn): 51
